Quick reference: pIC50 of the listed items.
Target: P2Y1 receptor (Homo sapiens, UniProt P47900)
Construct: expressed in transfected cells
Sequence (P47900 whole entry): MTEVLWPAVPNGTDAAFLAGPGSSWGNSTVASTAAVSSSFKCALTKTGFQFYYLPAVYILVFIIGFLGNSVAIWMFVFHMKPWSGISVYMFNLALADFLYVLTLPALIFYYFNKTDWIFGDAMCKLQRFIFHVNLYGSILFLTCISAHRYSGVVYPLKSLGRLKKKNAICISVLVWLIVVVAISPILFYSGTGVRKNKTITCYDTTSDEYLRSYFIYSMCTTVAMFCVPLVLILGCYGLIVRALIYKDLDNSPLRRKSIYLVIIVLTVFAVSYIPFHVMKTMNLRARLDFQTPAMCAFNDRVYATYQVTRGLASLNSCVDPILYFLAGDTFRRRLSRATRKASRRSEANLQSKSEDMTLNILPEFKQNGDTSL
Test: Cell based HTRF assay measuring IP1 accumulation; antagonism of the P2Y1 agonist MRS2365
Conditions: 5nM MRS2365; rounded to nearest whole number; read-out: IC50
Experimental: IC50 values were determined using a cell based assay in stably transfected cells overexpressing the P2Y1 receptor. […] For the assay, IP1 accumulation was quantified using the IPOne kit according to manufacturer's instructions. In short, a standard curve was prepared for IP1 quantification, and cells lysed using kit lysis buffer. […] Plates were analysed on a BMG Pherastar plate reader, and IP1 signal generated in cells interpolated from the standard curve.
pIC50: −log10 of the molar value.
assay_endpoint: pIC50

compound	value_observed
Cc1ccc(NC(=O)Nc2ccc(OC(F)(F)F)cc2)c(Oc2ccccc2C(C)(C)C)n1 [compound 3, reference compound]	7.44
CC1(C)CN(c2ccccc2NC(=O)Nc2ccc(OC(F)(F)F)cc2)c2c(O)ccc(-c3ccc(Cl)cc3)c21 [compound 1, reference compound]	7.48
